Cited source: patent US6087361A

biological target: I1 imidazoline receptor; test: I1 imidazoline receptor binding assay, 3H-clonidine, bovine VLM membranes; conditions: 25° C., 50 min
Rule: Ki below 4 µM gives TRUE, anything at or above gives FALSE.

Observe how each entry below is paired with its result.
smiles_representation=c1cc2c(cc1NC1=NCCN1)NCCN2 group=TRUE
smiles_representation=Brc1c(NC2=NCCN2)ccc2c1NCCN2 group=FALSE
smiles_representation=c1cc2c(cc1NC1=NCCN1)OCCO2 group=TRUE
smiles_representation=COc1ccc(NC2=NCCN2)c(C)c1OC group=TRUE
smiles_representation=Cc1c(NC2=NCCN2)ccc2c1NCCO2 group=FALSE
smiles_representation=Cc1cccc(Nc2ncc[nH]2)c1C group=TRUE
smiles_representation=O=C1COc2ccc(NC3=NCCN3)cc2N1 group=FALSE
smiles_representation=Cc1c(Nc2ncc[nH]2)ccc2nccnc12 group=TRUE

For this molecule, is Ki lower than 4 µM? Cc1cc(C(C)(C)C)c(O)c(C)c1CC1=NCCN1 FALSE

For this molecule, is Ki lower than 4 µM? Cc1c(NC2=NCCN2)ccc2c1NC(=O)CO2 FALSE

For this molecule, is Ki lower than 4 µM? COc1c(C(C)(C)C)cc(C)c(Nc2ncc[nH]2)c1C FALSE
